# Test system: MDA-MB-468 breast
# test protocol: NCI tumour cell line growth inhibition, 48 h
property: TGI (nM)
Just the number in nM, nothing appended.

Examples from the recorded data:
Can you look up the measured TGI of O=C1/C(=C/c2ccc(F)c(F)c2)CN(C(=O)C(Cl)Cl)C/C1=C\c1ccc(F)c(F)c1 for me? 352

Can you look up the measured TGI of CN(C)C[C@H]1CCn2c(c(C3=C(c4cn(C)c5ccccc45)C(=O)NC3=O)c3ccccc32)C1 for me? 7860

Now examine the next entry.
Can you look up the measured TGI of Nc1ncnc2c1c(-c1ccc(Oc3ccccc3)cc1)nn2C[C@H]1SSC[C@@H]1O for me? 1630
